The reported measurements were obtained from paper PMC5540273.

# Tested on: FGR;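 also: KINOMEscan kinase panel screen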
# conditions-used: concentration: 1 μM, replicates: in singlicate; n = 1
Quick reference for %Inh among some compounds
Supply the numeric figure in %, leaving out any unit text.

## Input Data request, read-out %Inh, for Fc1cc(Cl)ccc1Nc1ccnc2cc(-c3ccc(CN4CCSCC4)o3)ccc12 [GW560106]
## Output 90.8

## Input For the compound CN(C)CCNS(=O)(=O)c1ccc(-c2ccnc3[nH]ccc23)cc1 [GSK977620] , what %Inh is on record?
## Output 4

## Input Could you tell me which %Inh is on file for Cc1ccc(NC(=O)c2ccnc(N3CCCCC3)c2)cc1-c1ccc(C(=O)NCC2CC2)cc1 [GW775610] ?
## Output 0

## Input Look at this compound and give its reported %Inh. Cn1cc(-c2ccc3c(c2)CCN3C(=O)Cc2cc(F)cc(C(F)(F)F)c2)c2c(N)ncnc21 [GSK2635225]
## Output 35
